Target: MAD2L2; further: reference of the scale not given here
Experiment: pooled miR-30 sensor sort-seq; sequence = guide strand
Settings: shRNA
recorded endpoint: sensor-assay potency score (higher = more potent)
Numbers only.

[
  {
    "sequence content": "TATACTGATTCAGCTCCGGGTG",
    "data value": -0.735
  },
  {
    "sequence content": "TTTTAGTGGTATCAGCCGGGGG",
    "data value": -1.07
  },
  {
    "sequence content": "TGTACTTCTTGCGTTTCTGGAA",
    "data value": -0.3
  },
  {
    "sequence content": "TGAGACAACAGCGAGTCTGAGC",
    "data value": -0.635
  },
  {
    "sequence content": "TTCCACGTAAAGCTGCATCTTT",
    "data value": -0.0388
  }
]

Please provide the recorded sensor-assay potency score (higher = more potent) for "TTTATCCAAAATCACCACCACC" , tested on MAD2L2. Further: reference of the scale not given here.
-1.44
